tested on: DG-75 Burkitt’s lymphoma cell line; assay: alamarBlue cell viability assay; details: Homo sapiens, DG-75, 48 h, read-out: % Viable Cells Remaining DG-75, 10 µM, 48 h
Quick rule for you: viability at 10 µM under 70% gets t, anything else gets f.

>  <compound>
CC(C)c1c2ccccc2c(/C=C/[N+](=O)[O-])c2ccccc12 [Compound 19m]

>  <label>
t

$$$$
>  <compound>
CN(C)C(=O)c1c2ccccc2cc2ccccc12 [Compound 33b]

>  <label>
f

$$$$

input: # check: viability at 10 µM < 70% for C/C(=C\c1c2ccccc2cc2ccccc12)[N+](=O)[O-] [Compound 19b, (E)-9-(2-nitroprop-1-en-1-yl)anthracene]
output: f

input: # check: viability at 10 µM < 70% for O=C(c1c2ccccc2cc2ccccc12)N1CCCCC1 [Compound 33f]
output: f

input: # check: viability at 10 µM < 70% for CCc1c2ccccc2c(/C=C/[N+](=O)[O-])c2ccccc12 [Compound 19l, (E)-9-Ethyl-10-(2-Nitrovinyl)Anthracene]
output: t

input: # check: viability at 10 µM < 70% for c1ccc2c(CN3CCCC3)c3ccccc3cc2c1 [Compound 29b]
output: f

input: # check: viability at 10 µM < 70% for N/N=C/c1c2ccccc2cc2ccccc12 [Compound 32a]
output: f

input: # check: viability at 10 µM < 70% for N#CCc1c2ccccc2cc2ccccc12
output: f

FYI, the data here is from paper PMC10746112.
